Quick reference: target mRNA inhibition of the listed items.
target: KRAS; conditions: ASO, A431, 1.667 µM
After the bases stand the sugars from the 5' end (letter, count) and the backbone: PS all phosphorothioate, else s phosphorothioate and o phosphodiester by linkage. Methylation of C is not given here. e = 2'-O-(2-methoxyethyl) (MOE); k = constrained ethyl (cEt); d = 2'-deoxy (DNA)
Note: unit % is implicit; provide only the numeric part.

Solved entries (count: 4):
GATGGTGTAACATAGG (sugars k3 d10 k3, PS)
56
AGGAGTCTTTATAGTA (sugars k3 d10 k3, PS)
58
ATGGTGTAACATAGGT (sugars kkddddddddddkeke, PS)
60
GTGTTTATGCAATGTT (sugars kkkddddddddkdkdk, PS)
73

Per the records, this sequence ( GTTTATGCAATGTTAA (sugars kkddddddddkekekk, PS) ) has target mRNA inhibition equal to 45

Per the records, this sequence ( ATTAGTGATTAGGTCA (sugars k3 d10 k3, PS) ) has target mRNA inhibition equal to 47

Per the records, this sequence ( TCTGAATTAGTCTCCA (sugars k3 d10 k3, PS) ) has target mRNA inhibition equal to 48

* * *

target: KRAS; conditions: ASO, A431, 2 µM
After the bases stand the sugars from the 5' end (letter, count) and the backbone: PS all phosphorothioate, else s phosphorothioate and o phosphodiester by linkage. Methylation of C is not given here. e = 2'-O-(2-methoxyethyl) (MOE); k = constrained ethyl (cEt); d = 2'-deoxy (DNA)
Quick reference: target mRNA inhibition of the listed items.
The answer consists of two parts: a number and, after it, its unit.

Solved entries (count: 5):
CTCTATGAAAGCTCAA (sugars k3 d10 k3, PS)
39%
GTGTTTATGCAATGTT (sugars kddddddddddkekek, PS)
53%
TATAATAATCCCCATT (sugars k3 d10 k3, PS)
7%
GGAGTCTTTATAGTAA (sugars kkddddddddddkeke, PS)
55%
TTATGCAATGTTAATT (sugars k3 d10 k3, PS)
3%

Per the records, this sequence ( TTAGTGATTAGGTCAA (sugars k3 d9 k3 e1, PS) ) has target mRNA inhibition equal to 53%

Per the records, this sequence ( GTGTTTATGCAATGTT (sugars kdddddddddkekeke, PS) ) has target mRNA inhibition equal to 41%

* * *

target: DGAT2; settings: ASO, HepG2, 2.5 µM
After the bases stand the sugars from the 5' end (letter, count) and the backbone: PS all phosphorothioate, else s phosphorothioate and o phosphodiester by linkage. Methylation of C is not given here. e = 2'-O-(2-methoxyethyl) (MOE); d = 2'-deoxy (DNA)
Rule: target mRNA inhibition of 60% or more gives Yes; anything lower gives No.

Does target mRNA inhibition meet or surpass 60% for GCCAACAAGTGGGAAATGCA (sugars e5 d10 e5, PS) ?
No

Does target mRNA inhibition meet or surpass 60% for ACCAGCCAGGCCCAGACCCA (sugars e5 d10 e5, PS) ?
No

Does target mRNA inhibition meet or surpass 60% for GTCTCATTCATCTGGGCCCT (sugars e5 d10 e5, PS) ?
Yes

Does target mRNA inhibition meet or surpass 60% for GGATGTGTCATTTCCCCTGG (sugars e5 d10 e5, PS) ?
Yes

Does target mRNA inhibition meet or surpass 60% for GGGTCCTCTCCGCTGCC (sugars e3 d10 e4, PS) ?
No
